# Test system: MCF7
# protocol_text: NCI tumour cell line growth inhibition, 48 h
Activity calls are given as the source filed them. Rule as the data show it: active = GI50 up to about 1.1 µM and inactive = higher.
reported_endpoint: GI50

Example cases with answers are listed next.
> print(dat)
                                   compound  test.target       value.reported
1  COc1cc(C2S/C(=C/c3ccccc3)C(=O)N2c2cccc([N+](=O)[O-])c2)cc(OC)c1OC (stereo unspecified)         MCF7   47.8 µM (inactive)
2                O=C(/C=C/c1ccccc1)c1ccccc1         MCF7    2.7 µM (inactive)
3        O=P(O)(Cc1ccccc1)c1ccccc1-c1ccccc1         MCF7  > 100 µM (inactive)
4     O=C1c2ccccc2-c2nnc(-c3ccc(Cl)cc3)cc21         MCF7   > 10 µM (inactive)
5  NS(=O)(=O)c1cc(Br)c(/N=N\c2ccc(O)c3ncccc23)c(Br)c1         MCF7   11.5 µM (inactive)

Below: the item to evaluate.
Query string: Tell me GI50 reported for `Cc1nc2nnc(CCCCCCCCc3nnc4nc(C)[nH]n34)n2[nH]1`
Result string: > 100 µM (inactive)

---

Measured GI50 by item
# System: CCRF-CEM
# protocol_text: NCI tumour cell line growth inhibition, 48 h
Activity calls are given as the source filed them. Rule as the data show it: active = GI50 up to about 1.1 µM and inactive = higher.

compound	GI50
CC1OC(Oc2c(-c3cc(O)c(O)c(O)c3)oc3cc(O)cc(O)c3c2=O)C(O)C(O)C1O (centres undefined)	> 10 µM (inactive)
COC(=O)N/N=C(/c1nc2ccc([N+](=O)[O-])cc2nc1O)C(O)c1ccc(OC)c(OC)c1 (centres undefined)	37.8 µM (inactive)
Cc1c(N)nc(C2CC(=O)N2CC(N)C(N)=O)nc1C(=O)NC(C(=O)NC(C)C(O)C(C)C(=O)NC(C(=O)NCCc1nc(-c2nc(C(=O)NCCNCC(C)O)cs2)cs1)C(C)O)C(OC1OC(CO)C(O)C(O)C1OC1OC(CO)C(O)C(OC(N)=O)C1O)c1c[nH]cn1 (centres undefined)	7.74 µM (inactive)

Query string: Tell me GI50 reported for COc1ccc(C2CC(C)=Nc3c(O)nc(S)nc3N2)cc1 (centres undefined)
Result string: 24.2 µM (inactive)

Query string: Tell me GI50 reported for O=C1CC(CC(O)[C@@H]2CCCC[C@@H]2O)CC(=O)N1c1ccccc1 (some centres undefined)
Result string: > 100 µM (inactive)

Query string: Tell me GI50 reported for CC(C)c1c(O)ccc2c1CCC1C(C)(C)CCCC21C (centres undefined)
Result string: 24.4 µM (inactive)

Query string: Tell me GI50 reported for `C[O+]=C1C=CC(=C2SC(c3ccccc3)(c3ccccc3)c3ccccc32)C=C1.[O-][Cl+3]([O-])([O-])[O-]`
Result string: 26.4 µM (inactive)

Query string: Tell me GI50 reported for `OC/C=C/[C@H](OCc1ccccc1)[C@H](/C=C/CO)OCc1ccccc1`
Result string: 20.1 µM (inactive)

Query string: Tell me GI50 reported for `C/C(=N\NC(=O)C(N)=O)c1c(O)cc(C)oc1=O`
Result string: > 100 µM (inactive)

---

# Test system: HCT-116
# protocol_text: NCI tumour cell line growth inhibition, 48 h
Activity calls are given as the source filed them. Rule as the data show it: active = GI50 up to about 1.1 µM and inactive = higher.
Can you answer with just one of these options? Yes = active, No = inactive

compound	test_target	assigned_class
CSc1ccc(-c2cc(-c3nc4ccccc4[nH]3)no2)cc1	HCT-116	No

Query string: Test call, this compound: OCC1OC(NCCNCCNC2OC(CO)C(O)C(O)C2O)C(O)C(O)C1O (stereo not drawn)
Result string: No

Query string: Test call, this compound: `O=c1ccc2ccccc2c2ccccc12`
Result string: No

Query string: Test call, this compound: NC(CCCCNC(=O)C(Cc1ccccc1)NC(=O)OCc1ccccc1)C(=O)NC(CCCCNC(=O)C(Cc1ccccc1)NC(=O)OCc1ccccc1)C(=O)NC(CCCCNC(=O)C(Cc1ccccc1)NC(=O)OCc1ccccc1)C(=O)NC(CCCCNC(=O)C(Cc1ccccc1)NC(=O)OCc1ccccc1)C(=O)NC(CCCCNC(=O)C(Cc1ccccc1)NC(=O)OCc1ccccc1)C(=O)NC(CCCCNC(=O)C(Cc1ccccc1)NC(=O)OCc1ccccc1)C(=O)O (stereo not drawn)
Result string: No

Query string: Test call, this compound: `CCOC(=O)[C@@]12C(C)=CC(=O)O[C@]1(C)C[C@H]2C#N`
Result string: No

Query string: Test call, this compound: `Cc1cccc(-c2cc(=S)c3cc(N4CCCC4)ccc3[nH]2)c1`
Result string: No

Query string: Test call, this compound: `Cc1cc(O)cc(O)c1/N=N/c1ccc([N+](=O)[O-])cc1`
Result string: No

Query string: Test call, this compound: `OC(Cc1ccccc1)(Cc1ccccc1)c1ccccc1`
Result string: No

Query string: Test call, this compound: `C[n+]1cn(-c2nc3ccccc3nc2[N-]S(=O)(=O)c2ccccc2)c2ccccc21`
Result string: No

Values compiled from ChEMBL document CHEMBL1201862.
